Source: PubChem BioAssay (NCI)

- System: 786-0 renal
- Method Summary: NCI tumour cell line growth inhibition, 48 h
So basically: TGI at 1 µM or higher? That is Satisfied. Lower than 1 µM? That is Not satisfied.

>>> group("CC(=O)c1cccc(NC(=O)C(=O)C(C(=O)NN)c2ccccc2)c1 (centres undefined)")
"Satisfied"
>>> group("CC(C)CC(=O)[O-].CC(C)CC(=O)[O-].N.N.N.N.[Co+3].[O-][Cl+3]([O-])([O-])O.[O-][Cl+3]([O-])([O-])[O-]")
"Satisfied"

Exercise: Given COc1ccc(NC(=O)CC(=O)NN2C(=O)/C(=C/c3ccc(N(CCC#N)CCC#N)cc3C)N=C2/C=C\c2ccccc2)cc1 , state whether its TGI is at least 1 µM.
Solution: Satisfied

Exercise: Given Cc1ccc(-c2cc(-c3cc(-c4ccc(C)cc4C)n[nH]3)[nH]n2)c(C)c1 , state whether its TGI is at least 1 µM.
Solution: Satisfied

Exercise: Given CC(C)c1nc(Cl)nc(Cl)c1Cl , state whether its TGI is at least 1 µM.
Solution: Satisfied

Exercise: Given NC(=O)c1cc(Cl)ccc1NC(=O)COc1ccccc1 , state whether its TGI is at least 1 µM.
Solution: Satisfied

Exercise: Given CC1CN=C(c2cccc(-c3ccc(-c4ccccc4)o3)c2)N1 (centres undefined) , state whether its TGI is at least 1 µM.
Solution: Satisfied

Exercise: Given CC1(C)C2CCC(=O)C1C(OCc1ccccc1)C2 (centres undefined) , state whether its TGI is at least 1 µM.
Solution: Satisfied

Exercise: Given Nc1nnnn1NC(=O)NCCCl , state whether its TGI is at least 1 µM.
Solution: Satisfied

====

- System: OVCAR-8 ovarian
- Method Summary: NCI tumour cell line growth inhibition, 48 h; in the data active means GI50 below about 0.43 µM; inactive means the rest
Hi there, use one of these labels in your reply, thanks! yes (1) for active, no (0) for inactive

Example cases with answers are listed next.
>>> group("CN1C(=O)C23CC4(C56CC78SSC(CO)(C(=O)N7C5Nc5ccccc56)N(C)C8=O)c5ccccc5NC4N2C(=O)C1(CO)SS3 (configuration not stated)")
"yes (1)"
>>> group("COC(=O)C1C(O)C(C)C(O)C(C)(O)/C=C/C=C(C)C(=O)Nc2c(C)c(OC(C)=O)c3c(c2O)C(=O)C(C)=C2OCOC(=C23)C(C)=CC(C)(O)C(O)C(C)C1OC(C)=O (configuration not stated)")
"no (0)"
>>> group("CCCCCCCCCOc1c(OC)cc(C2CC(=O)Nc3c2c(C)nn3-c2nc3ccccc3[nH]2)cc1OC (configuration not stated)")
"no (0)"
>>> group("C/C(=N\\NC(=O)c1ccccc1N)c1ccccc1O")
"no (0)"
>>> group("COc1cccc(-n2ncc3c(N/N=C/c4cccc(F)c4)ncnc32)c1")
"no (0)"

Exercise: Query: recorded result category for CC1CN=C(c2cccc(-c3ccc(-c4ccccc4)o3)c2)N1 (configuration not stated) in this test
Solution: no (0)

Exercise: Query: recorded result category for O=c1c2[nH]ccc2nc2n1CCS2 in this test
Solution: no (0)

Exercise: Query: recorded result category for CC(C)CC(=O)[O-].N.N.N.N.N.[Co+3].[O-][Cl+3]([O-])([O-])[O-] in this test
Solution: no (0)

Exercise: Query: recorded result category for CCN1CCN(Cc2ccc(NC(=O)c3nc4ccc5[nH]ncc5c4c4c3CCCC4)cc2C(F)(F)F)CC1 in this test
Solution: no (0)

Exercise: Query: recorded result category for C1CCC(C(CC2CCCCN2)C2CCCCC2)CC1 (configuration not stated) in this test
Solution: no (0)

Exercise: Query: recorded result category for c1ccc(-c2cccc(-c3ccccn3)n2)nc1 in this test
Solution: yes (1)

Exercise: Query: recorded result category for C=C1C(C(O)C[C@H](C)C2O[C@@]3(CCCCO3)CCC2C)O[C@@H]2CCC3(CCC(/C=C/[C@@H](C)C4CC(C)=CC5(O4)O[C@H](C[C@](C)(O)C(=O)O)CCC5O)O3)OC2[C@@H]1O (some centres not stated) in this test
Solution: yes (1)
